meta.source: PubChem BioAssay (NCATS)

- method.description: Primary qHTS for Huh7 cytotoxicity: counterscreen for inhibitors of MERS-S pseudotyped particle cell entry (AID 1479147)
- experimental.context: cell viability read-out; at 57.1 µM (top of the series) unless noted
Results filed as inconclusive are left out. Calls of active or inactive are those of the source. Calls follow the shape of the full dose curve.
metric.name: outcome

# count of solved cases: 5
>  <smiles.notation>
[2H]N[C@@H](Cc1ccccc1)C(=O)N1CCC[C@H]1C(=O)N[C@@H](CCCNC(=N)N)C(=O)N1CCC[C@H]1C(=O)NCC(=O)NCC(=O)NCC(=O)NCC(=O)N[C@@H](CC(N)=O)C(=O)NCC(=O)N[C@@H](CC(=O)O)C(=O)N[C@@H](Cc1ccccc1)C(=O)N[C@@H](CCC(=O)O)C(=O)N[C@@H](CCC(=O)O)C(=O)N[C@H](C(=O)N1CCC[C@H]1C(=O)N[C@@H](CCC(=O)O)C(=O)N[C@@H](CCC(=O)O)C(=O)N[C@@H](Cc1ccc(O)cc1)C(=O)N[C@@H](CC(C)C)C(=O)O)[C@@H](C)CC

>  <outcome>
inactive [at 11.4 µM]

$$$$
>  <smiles.notation>
CCCCCCCCCCCCCCCCCCCCCCCCCCCCO

>  <outcome>
inactive [at 0.573 µM]

$$$$
>  <smiles.notation>
Cc1ncc(C[n+]2csc(CCOP(=O)(O)OP(=O)(O)O)c2C)c(N)n1

>  <outcome>
inactive [at 0.573 µM]

$$$$
>  <smiles.notation>
C[C@@H]1C[C@H]2[C@@H]3CCC4=CC(=O)C=C[C@]4(C)[C@@]3(F)[C@@H](O)C[C@]2(C)[C@@]1(O)C(=O)COP(=O)(O)O

>  <outcome>
inactive [at 11.4 µM]

$$$$
>  <smiles.notation>
CCC(=C(CC)c1ccc(OP(=O)(O)O)cc1)c1ccc(OP(=O)(O)O)cc1

>  <outcome>
inactive [at 0.573 µM]

$$$$

State, in one line, measured outcome of CC(=O)[O][Al][O]C(C)=O
inactive [at 11.4 µM]

====

- Test system: AS120
- method.description: qHTS profiling for inhibitors of Plasmodium falciparum proliferation (AID 504749); also: nearly all actives have a fitted effect of over 60% in size
- experimental.context: P. falciparum in erythrocytes, SYBR Green DNA, 72 h; series mostly up to 28.7 µM
Records with an inconclusive call do not appear. The source made the active and inactive calls. Calls follow the shape of the dose curve; as a rule, active = well fitted inhibition curve with a large enough effect; inconclusive = small, poorly fitted or top-dose-only effect; inactive = flat fitted curve, though single readings scatter.
Hi there, use one of these labels in your reply, thanks! active, inactive

Below are worked cases with known answers.
>  <compound>
C=CC1CN2CCC1CC2C(OC(=O)OCC)c1ccnc2ccc(OC)cc12 (stereo unspecified)

>  <assay.target>
AS120

>  <class>
active

$$$$
>  <compound>
C[C@]12CC[C@H](O)CC1=CCC1C2CC[C@]2(C)C(=O)CC[C@@H]12 (stereo partly specified)

>  <assay.target>
AS120

>  <class>
inactive

$$$$
>  <compound>
CNc1ccc(C(=O)CC(O)CCC(C)C2OC(=O)CC(O)CC(=O)CC(O)CC(O)CC(O)CC(O)CC3(O)CC(O)C(C(=O)OC)C(CC(O[C@@H]4OC(C)C(O)C(N)C4O)/C=C/C=C/C=C/C=C/C=C/C=C/C=C/C2C)O3)cc1 (stereo partly specified)

>  <assay.target>
AS120

>  <class>
inactive

$$$$
>  <compound>
C[N+]1([O-])[C@@H]2CC[C@H]1CC(OC(=O)[C@@H](CO)c1ccccc1)C2 (stereo partly specified)

>  <assay.target>
AS120

>  <class>
inactive

$$$$

# outcome recorded in this test, key = CC(=O)O[C@H]1CC[C@@]2(C)C(=CC[C@@H]3[C@H]2CC[C@]2(C)C(=O)CC[C@H]32)C1
inactive

# outcome recorded in this test, key = C#CCN(C)[C@@H](C)Cc1ccccc1
inactive

# outcome recorded in this test, key = CN[C@@H](C)[C@H]1CC[C@@H](N)[C@@H](O[C@@H]2[C@@H](O)[C@@H](O[C@H]3OC[C@@](C)(O)[C@@H](NC)[C@@H]3O)[C@H](N)C[C@@H]2N)O1 (tested in a mixture with another compound)
inactive

# outcome recorded in this test, key = COc1cc2c(cc1OC)[C@@]13CCN4CC5=CCOC6CC(=O)N2C1[C@H]6[C@@H]5C[C@@H]43 (stereo partly specified)
inactive

# outcome recorded in this test, key = CCCC[N+]1(C)C2CC(OC(=O)C(CO)c3ccccc3)CC1C1OC12 (stereo unspecified)
inactive

# outcome recorded in this test, key = CC(=O)OC1C[C@H](O[C@@H]2C(O)C[C@H](O[C@@H]3C(O)C[C@@H](OC4CC[C@]5(C)C(CCC6C5CC(O)[C@@]5(C)C(C7=CC(=O)OC7)CC[C@@]65O)C4)OC3C)OC2C)O[C@H](C)[C@H]1O[C@H]1OC(CO)C(O)C(O)C1O (stereo partly specified)
inactive

# outcome recorded in this test, key = CCNC[C@H](O)c1cccc(O)c1
inactive

# outcome recorded in this test, key = C[C@]12CC[C@H]3[C@@H](CCC4=CC(=O)CC[C@@]43C)[C@@H]1CC[C@@H]2O
inactive

# outcome recorded in this test, key = O=C1C=C2C=CC3C[C@@]2(O1)C1CCCCN31 (stereo partly specified)
active

# outcome recorded in this test, key = C[C@H](NC(C)(C)C)C(=O)c1cccc(Cl)c1
inactive

# outcome recorded in this test, key = CN(C)[C@@H]1C(=O)C(C(N)=O)=C(O)[C@]2(O)C(=O)C3=C(O)c4c(O)ccc(Cl)c4[C@](C)(O)[C@H]3C[C@@H]12
inactive

# outcome recorded in this test, key = Oc1ccc2c3c1O[C@H]1[C@@H](O)CC[C@@]4(O)C(C2)N(CC2CCC2)CCC314 (stereo partly specified)
inactive

====

- assay.target: Mitogen-activated protein kinase 10 (Mus musculus) (UniProt Q61831)
- method.description: JNK3 AlphaScreen Assay (AID 530);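 also: kinase came from lysate of stimulated human HepG2 cells; signal reports phosphorylation of biotinylated GST-cJun 1-79 at Ser73 with 10 µM ATP; % is scaled to controls: 0 for no effect and ±100 for the full control effect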
- experimental.context: JNK3 lysate, c-Jun phosphorylation; series mostly up to 57.1 µM
Inconclusive results are not listed. Activity calls are given as the source filed them. Calls come from the whole dose curve; as a rule, active = well fitted curve in either direction with a large enough effect (not every such curve was filed as active); inconclusive = small, poorly fitted or top-dose-only effect, or another doubt; inactive = flat fitted curve, though single readings scatter.
metric.name: activity change, negative = inhibition

# count of solved cases: 6
>  <compound>
c1csc(CN2CC3(CCNCC3)C2)n1

>  <assay.target>
Mitogen-activated protein kinase 10 (Mus musculus) (UniProt Q61831)

>  <reading>
inactive

$$$$
>  <compound>
C[N+](C)(C)Cc1ccccc1

>  <assay.target>
Mitogen-activated protein kinase 10 (Mus musculus) (UniProt Q61831)

>  <reading>
inactive

$$$$
>  <compound>
c1ccc(N2CC3(CCNCC3)C2)nc1

>  <assay.target>
Mitogen-activated protein kinase 10 (Mus musculus) (UniProt Q61831)

>  <reading>
inactive

$$$$
>  <compound>
c1ccc(N2CCC3(CCNCC3)CC2)nc1

>  <assay.target>
Mitogen-activated protein kinase 10 (Mus musculus) (UniProt Q61831)

>  <reading>
inactive

$$$$
>  <compound>
CCOCN(C(=O)CCl)c1c(C)cccc1CC

>  <assay.target>
Mitogen-activated protein kinase 10 (Mus musculus) (UniProt Q61831)

>  <reading>
inactive

$$$$
>  <compound>
C[C@@H]1O[C@H](O[C@@H]2CC[C@@]3(C=O)[C@H]4CC[C@@]5(C)[C@@H](C6=CC(=O)OC6)CC[C@@]5(O)[C@@H]4CC[C@]3(O)C2)C[C@H](O)[C@@H]1O

>  <assay.target>
Mitogen-activated protein kinase 10 (Mus musculus) (UniProt Q61831)

>  <reading>
inactive

$$$$

State, in one line, measured activity change, negative = inhibition of OCC1CO1 (stereo unspecified)
inactive

State, in one line, measured activity change, negative = inhibition of CN(C)[C@@H]1C(=O)C(C(N)=O)=C(O)[C@]2(O)C(=O)C3=C(O)c4c(O)cccc4[C@@](C)(O)[C@H]3[C@H](O)[C@@H]12
inactive

====

- method.description: qHTS Assay for Lipid Storage Modulators (AID 1519); also: % is scaled to controls: 0 for no effect and ±100 for the full control effect
- experimental.context: Drosophila S3 cells, BODIPY lipid droplet/cell ratio, laser cytometry; at 25.7 µM (top of the series); cells loaded with oleic acid
- Method: NIH Molecular Libraries Probe Production Centers Network [MLPCN] NIH Chemical Genomics Center [NCGC] Assay Submitter (PI): Beller, Mathias; Max-Planck-Institut fur Biophysikalische Chemie […] We dispensed 4 uL of cells at 1.25 x 10^6 cells/mL into LoBase Aurora COC 1,536-well plates (black walled, clear bottom) with a bottle-valve solenoid-based dispenser (Aurora) to obtain 5,000 cells/well. […] The ratio of the total intensity in PMT channel 1 over total intensity of channel 3 was also calculated. […]
Results filed as inconclusive are left out. The source made the active and inactive calls. Calls follow the shape of the full dose curve.
activity change, negative = inhibition values, listed per item

>  <compound>
C[N+]1([O-])[C@@H]2CC(OC(=O)[C@@H](CO)c3ccccc3)C[C@@H]1[C@H]1O[C@H]12 (stereo partly drawn)

>  <reading>
0.148% (inactive)

$$$$
>  <compound>
C[C@@H]1NCCc2cc(O)c(O)cc21

>  <reading>
-2.45% (inactive)

$$$$

State, in one line, measured activity change, negative = inhibition of CN1C[C@H](C(=O)N[C@]2(C)O[C@]3(O)[C@H]4CCCN4C(=O)[C@H](Cc4ccccc4)N3C2=O)C[C@H]2c3cccc4[nH]cc(c34)C[C@@H]21
-4.57% (inactive)
